Listed below: pKd values for each entry.
Target: T1, human CD33 (human, UniProt P20138 18-259, limits assumed)
T1 construct: Human CD33 immobilized on the BLI sensor tip or the BIAcore C1 chip; also called Siglec-3
T1 sequence (P20138 18-259 limits assumed): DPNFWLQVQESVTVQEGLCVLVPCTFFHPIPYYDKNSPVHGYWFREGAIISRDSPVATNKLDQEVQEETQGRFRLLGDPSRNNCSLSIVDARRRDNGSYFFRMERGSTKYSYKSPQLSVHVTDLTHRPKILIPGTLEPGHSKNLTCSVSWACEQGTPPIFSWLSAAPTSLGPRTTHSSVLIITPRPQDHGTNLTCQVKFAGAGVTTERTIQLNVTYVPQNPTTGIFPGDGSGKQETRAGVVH
Experiment: BLI (ForteBio), Fab 100 nM on immobilized CD33
API: returns pKd as number; meaning -log10 of concentration in mol/L.

Solved entries:
| binder | pKd |
| --- | --- |
| AB-H14 (antibody, V domains shown, Humanized variant of murine 2F5.1) VH: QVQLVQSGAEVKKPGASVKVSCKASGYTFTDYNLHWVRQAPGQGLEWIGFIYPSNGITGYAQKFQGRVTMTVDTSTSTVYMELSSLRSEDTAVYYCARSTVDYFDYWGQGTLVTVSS VL: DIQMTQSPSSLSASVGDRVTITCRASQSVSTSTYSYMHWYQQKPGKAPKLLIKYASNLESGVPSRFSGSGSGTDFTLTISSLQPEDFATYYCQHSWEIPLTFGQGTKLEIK | 8.47 |
| Chimeric Ab (antibody, V domains shown, Chimeric antibody with the variable regions of murine 2F5.1; also called parental antibody; comparator antibody) VH: EVQLQQSGPELVKPGASVKISCKASGYTFTDYNLHWVKLSHGKSLEWIGFIYPSNGITGYNQKFKNKATLTVDNSSSTAYMELRSLTSEDSAVYYCARSTVDYFDYWGQGTTLTVSS VL: DIVLTQSPASLAVSLGQRATMSCRASQSVSTSTYSYMHWYQQKPGQPPKLLIKYASNLESGVPARFSGSGSGTDFTLNIHPVEEEDTATYYCQHSWEIPLTFGAGTKLELK | 8.28 |
| AB-H9 (antibody, V domains shown, Humanized variant of murine 2F5.1) VH: QVQLVQSGAELKKPGASVKVSCKASGYTFTDYNLHWVRQAPGQRLEWIGFIYPSNGITGYSQKFQGKATLTVDTSASTAYMELSSLRSEDTAVYYCARSTVDYFDYWGQGTTVTVSS VL: DIQMTQSPSSLSASVGDRVTITCRASQSVSTSTYSYMHWYQQKPGKAPKLLIYYASNLESGVPSRFSGSGSGTDFTLTISSLQPEDFATYYCQHSWEIPLTFGQGTKLEIK | 8.46 |
| AB-H66 (antibody, V domains shown, Humanized variant of murine 2F5.1) VH: QVQLVQSGAEVKKPGASVKISCKASGYTFTDYNLHWVRQAPGQGLEWIGFIYPSNGITGYAQKFQGRATLTVDTSTSTAYMELSSLRSEDTAVYYCARSTVDYFDYWGQGTTVTVSS VL: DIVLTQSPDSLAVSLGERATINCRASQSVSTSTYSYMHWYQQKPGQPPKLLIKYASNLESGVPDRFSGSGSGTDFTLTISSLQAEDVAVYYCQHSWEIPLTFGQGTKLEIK | 8.26 |

// moving on: another record for pKd
Identify measured pKd corresponding to AB-H2 (antibody, V domains shown, Humanized variant of murine 2F5.1) VH: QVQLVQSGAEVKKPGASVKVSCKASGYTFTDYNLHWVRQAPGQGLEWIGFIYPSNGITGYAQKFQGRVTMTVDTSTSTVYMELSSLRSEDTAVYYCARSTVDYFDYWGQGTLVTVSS VL: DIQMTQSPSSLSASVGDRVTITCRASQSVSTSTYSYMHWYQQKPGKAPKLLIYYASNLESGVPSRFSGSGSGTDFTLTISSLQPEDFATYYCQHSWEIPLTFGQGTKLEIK 8.49
